The compounds listed here are annotated with their growth.
# Test system: NCI-H23 lung
# EXPERIMENT_DESCRIPTION: NCI-60 one-dose screen, 48 h (100 = growth as untreated, 0 = no growth, -100 = all killed)
# CONDITIONS: 10 µM unless noted
This is part of a sample that, as a whole, favours compounds with a hit. Of some 83,000 tested, about 20% had one in any assay.
ENDPOINT: growth (%)

{"COMPOUND": "O=C(CC1(O)C(=O)Nc2ccc(Br)cc21)c1ccc(C(=O)NCC2CCC3(CC2)OOC2(CCCCC2)OO3)cc1 (stereo unspecified)", "TGT": "NCI-H23 lung", "ENDPOINT": "growth", "MEASURED_NUMBER": 53.7}
{"COMPOUND": "O=C(CCl)c1ccc([N+](=O)[O-])o1", "TGT": "NCI-H23 lung", "ENDPOINT": "growth", "MEASURED_NUMBER": 5.38}
{"COMPOUND": "CN(C)C(=O)Oc1ccccc1-c1ccccc1", "TGT": "NCI-H23 lung", "ENDPOINT": "growth", "MEASURED_NUMBER": 102}
{"COMPOUND": "COc1ccc(-n2c(C)nc3cc(OC)c(OC)cc3c2=O)cc1OC", "TGT": "NCI-H23 lung", "ENDPOINT": "growth", "MEASURED_NUMBER": 101}
{"COMPOUND": "Cc1ccc(C(=O)NCCCOc2ccc(N)cc2Cl)cc1S(=O)(=O)F", "TGT": "NCI-H23 lung", "ENDPOINT": "growth", "MEASURED_NUMBER": 98.9}
{"COMPOUND": "COc1ccc(Nc2ccnc3cc(Cl)ccc23)cc1CN(CCCl)CCCl", "TGT": "NCI-H23 lung", "ENDPOINT": "growth", "MEASURED_NUMBER": -46.7}

* * *

# System: SF-295 CNS
# EXPERIMENT_DESCRIPTION: NCI-60 one-dose screen, 48 h (100 = growth as untreated, 0 = no growth, -100 = all killed)
# CONDITIONS: 10 µM unless noted
The panel holds about 83,000 compounds, 20% with a hit somewhere; the sample as a whole holds those more often.

{"COMPOUND": "COC(=O)[C@]12CCC(C)(C)C[C@H]1[C@H]1C(=O)C[C@@H]3[C@@]4(C)C[C@@]5(CC(C)(C)[C@@H]4CC[C@@]3(C)[C@]1(C)CC2)OO[C@@](C)(C(F)(F)F)O5", "growth (%)": 95.7}
{"COMPOUND": "COP(=S)(N1CC1)N1CC1", "growth (%)": 104}
{"COMPOUND": "CCCCCCCC(=O)OCC(=O)[C@]1(O)Cc2c(O)c3c(c(O)c2[C@@H](OC2CC(N)C(O)C(C)O2)C1)C(=O)c1c(OC)cccc1C3=O (some centres not stated)", "growth (%)": -68.1}
{"COMPOUND": "CC[C@H](C)[C@H](NC(=O)C12CC(NC(C)=O)(C1)C2)C(=O)N(C)[C@H](C[C@@H](OC(C)=O)c1nc(C(=O)N[C@@H](Cc2ccccc2)C[C@H](C)C(=O)OC)cs1)C(C)C", "growth (%)": 18.7}
{"COMPOUND": "CC(=O)OC1C(OC/C2=C/C3[C@@H](C(C)C)CC=C(C)[C@@H]3CC(OC(=O)/C=C/c3cn(C)cn3)[C@]3(C)C=C[C@@]2(O)O3)OCC(O)C1O (some centres not stated)", "growth (%)": -3.4}
{"COMPOUND": "Cc1cccc(N2CCN(C(C)C#N)CC2)c1 (configuration not stated)", "growth (%)": 84.6}
{"COMPOUND": "CCOC(=O)[C@@H](C)C[C@H](Cc1ccccc1)NC(=O)c1csc([C@@H](C[C@H](C(C)C)N(C)C(=O)[C@H](CCC(C)C)NC(=O)[C@H]2CCCCN2C)OC(C)=O)n1", "growth (%)": 12.2}
